Target: T1, recombinant rat MASP1 active protease (amino acids 302-704, C-terminal His Tag) (rat, UniProt Q8CHN8 302-704)
T1 sequence: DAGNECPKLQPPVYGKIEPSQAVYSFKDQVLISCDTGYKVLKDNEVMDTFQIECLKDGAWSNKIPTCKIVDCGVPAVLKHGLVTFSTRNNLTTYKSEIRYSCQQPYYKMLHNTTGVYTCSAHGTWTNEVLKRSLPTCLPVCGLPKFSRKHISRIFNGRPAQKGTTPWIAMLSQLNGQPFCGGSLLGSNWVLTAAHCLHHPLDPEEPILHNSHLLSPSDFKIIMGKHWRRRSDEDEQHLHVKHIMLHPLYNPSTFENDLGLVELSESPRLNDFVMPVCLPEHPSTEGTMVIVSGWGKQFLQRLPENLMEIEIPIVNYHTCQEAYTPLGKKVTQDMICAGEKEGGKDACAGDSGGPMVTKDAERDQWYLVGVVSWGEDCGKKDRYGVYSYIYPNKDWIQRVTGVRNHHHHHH
Test: cell-based or functional assay
Bridge positions count the residues as written; N and C are the ends. Square brackets hold non-standard residues; d marks the D form. Ends that are not written are not given here. Oic = O=C(O)[C@@H]1C[C@@H]2CCCC[C@@H]2N1; tBuAla = CC(C)(C)C[C@H](N)C(=O)O; aThr = C[C@H](O)[C@H](N)C(=O)O; NMeC = CN[C@@H](CS)C(=O)O
metricName: rat MASP1 IC50 (nM)
Give just the number in nM; leave the unit off.

Given the binder GICSRS[tBuAla]P[Oic]I[NMeC]IPD-NH2 (disulfide 3-11; N-terminus assumed; SMILES CC[C@H](C)[C@H](NC(=O)CN)C(=O)N[C@H]1CSSC[C@@H](C(=O)N[C@H](C(=O)N2CCC[C@H]2C(=O)N[C@@H](CC(=O)O)C(N)=O)[C@@H](C)CC)N(C)C(=O)[C@H]([C@@H](C)CC)NC(=O)[C@@H]2C[C@@H]3CCCC[C@@H]3N2C(=O)[C@@H]2CCCN2C(=O)[C@H](CC(C)(C)C)NC(=O)[C@H](CO)NC(=O)[C@H](CCCNC(=N)N)NC(=O)[C@H](CO)NC1=O) [Example 212: GIC+SRS-((tBu)A)-P-(Oic)-I-((N-Me)C)+IPD-NH2] , what is its reported rat MASP1 IC50?
24.6

Thanks! And AICSR[aThr]LPPICIPD-NH2 (disulfide 3-11; N-terminus assumed; SMILES CC[C@H](C)[C@H](NC(=O)[C@H](C)N)C(=O)N[C@H]1CSSC[C@@H](C(=O)N[C@H](C(=O)N2CCC[C@H]2C(=O)N[C@@H](CC(=O)O)C(N)=O)[C@@H](C)CC)NC(=O)[C@H]([C@@H](C)CC)NC(=O)[C@@H]2CCCN2C(=O)[C@@H]2CCCN2C(=O)[C@H](CC(C)C)NC(=O)[C@H]([C@H](C)O)NC(=O)[C@H](CCCNC(=N)N)NC(=O)[C@H](CO)NC1=O) [Example 278: AIC+SR-(allo-T)-LPPIC+IPD-NH2] ?
83
